Origin of measurements: patent US20010044445A1

Would you mind telling me the reported IC50 of each entry?
Test system: Human peripheral blood mononuclear cells
Test: Human Concanavalin-A Proliferation Assay (Con HU Assay)
Format: cell-based
Settings: Homo sapiens, PBMC, concanavalin-A stimulated human PBMC, tritiated thymidine
Field: numeric (nM). Do not append units.

[ask] Need IC50, item CSc1cc(C(F)(F)F)nn1-c1ccc(NC(=O)c2cccnc2F)cc1 [Example 316]
[reply] 41

[ask] What do we get for O=C(Nc1ccc(-n2nc(C(F)(F)F)cc2C(F)(F)F)nc1)c1ccccc1F [Example 292] ?
[reply] 258

[ask] Query COC(=O)c1ccc(C(=O)Nc2ccc(-n3nc(C(F)(F)F)cc3C(F)(F)F)cc2)cc1 [Example 142] next
[reply] 489

[ask] Then what about the compound O=C(Nc1ccc(-n2nc(C(F)(F)F)cc2C(F)(F)F)cc1)c1ccc(F)c(F)c1F [Example 226] ?
[reply] 43
